# Target Or System: factor Xa (Homo sapiens)
# Procedure Summary: In vitro Factor Xa assay (Test 1a), chromogenic substrate S-2765
# Assay type: biochemical
# Set-up: purchased Enzyme Research Laboratories, Inc; South Bend, Ind
# Details: Factor Xa inhibitory activity; Ki from IC50 corrected for substrate competition; 25° C., pH 7.8; read-out: Ki (FXa)
Where a name gives a salt, the structure may show the parent alone.
Measured Attribute: Ki (nM)
Give bare numbers, in nM.

Example entries begin here.
[
  {
    "Molecule": "CN(Cc1ccccc1)C(=O)C(Cc1ccc(C(=N)N)cc1)C(=O)N[C@H](C(=O)N[C@@H](CCCNC(=N)N)C(N)=O)C1CCCCC1 (stereo partly drawn) [Example 144, trifluoroacetic acid salt]",
    "Unit Symbol": "nM",
    "Ki": 11
  },
  {
    "Molecule": "N=C(N)NCCC[C@H](NC(=O)[C@@H](NC(=O)C(Cc1ccc(C(=N)NO)cc1)C(=O)NCc1ccccc1)C1CCCCC1)C(N)=O (stereo partly drawn) [Example 14, trifluoroacetic acid salt]",
    "Unit Symbol": "nM",
    "Ki": 21.8
  },
  {
    "Molecule": "CN(C)C(=O)C(Cc1ccc(C(=N)N)cc1)C(=O)N1Cc2ccccc2C[C@H]1C(=O)N[C@@H](CCCNC(=N)N)C(N)=O (stereo partly drawn) [Example 10, trifluoroacetic acid salt]",
    "Unit Symbol": "nM",
    "Ki": 604
  },
  {
    "Molecule": "C=CCNC(=O)C(Cc1ccc(C(=N)N)cc1)C(=O)N[C@@H](CCCN)C(=O)N[C@@H](CCCNC(=N)N)C(N)=O (stereo partly drawn) [Example 45, trifluoroacetic acid salt]",
    "Unit Symbol": "nM",
    "Ki": 26500
  }
]

// for each molecule below, give its Ki
1. CN(C)C(=O)C(Cc1ccc(C(=N)N)cc1)C(=O)N[C@H](C(=O)N[C@@H](CCCNC(=N)N)C(N)=O)c1ccccc1 (stereo partly drawn) [Example 56, trifluoroacetic acid salt]
2. CCOC(=O)[C@H](CCCNC(=N)N)NC(=O)[C@@H](NC(=O)C(Cc1ccc(C(=N)N)cc1)C(=O)NCc1ccccc1)C1CCCCC1 (single isomer, unassigned; less polar)

Result:
2.1
10

* * *

# Target Or System: factor Xa (Homo sapiens, UniProt P00742)
# Sequence (P00742 235-488 limits assumed): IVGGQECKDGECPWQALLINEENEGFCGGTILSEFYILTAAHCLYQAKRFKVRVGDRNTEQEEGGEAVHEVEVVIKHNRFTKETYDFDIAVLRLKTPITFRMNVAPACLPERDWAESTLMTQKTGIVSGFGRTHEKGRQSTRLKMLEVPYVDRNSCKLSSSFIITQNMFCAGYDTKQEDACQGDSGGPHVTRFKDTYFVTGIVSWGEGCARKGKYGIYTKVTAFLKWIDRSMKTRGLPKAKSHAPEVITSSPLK
# Sequence (P00742 41-179 partner limits assumed): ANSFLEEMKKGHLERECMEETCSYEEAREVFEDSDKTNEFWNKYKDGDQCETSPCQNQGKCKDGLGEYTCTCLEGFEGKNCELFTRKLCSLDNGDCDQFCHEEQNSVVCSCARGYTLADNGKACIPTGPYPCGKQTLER
# Procedure Summary: In vitro Factor Xa assay (Test 1a), chromogenic substrate S-2765
# Assay type: biochemical
# Set-up: purchased Enzyme Research Laboratories, Inc; South Bend, Ind
# Details: Factor Xa inhibitory activity; Ki from IC50 corrected for substrate competition; 25° C., pH 7.8; read-out: Ki (FXa)
Counter-ions that a name gives are not always drawn.
Measured Attribute: Ki (nM)
Numbers only, in nM.

Example entries begin here.
[
  {
    "Molecule": "N=C(N)NCCC[C@H](NC(=O)[C@H](Cc1ccc2ccccc2c1)NC(=O)C(Cc1ccc(C(=N)N)cc1)C(=O)Nc1ccccc1)C(N)=O (stereo partly drawn) [Example 38, trifluoroacetic acid]",
    "Unit Symbol": "nM",
    "Ki": 1100
  },
  {
    "Molecule": "CN(C)C(=O)C(Cc1ccc(C(=N)N)cc1)C(=O)N[C@@H](CCC(=O)O)C(=O)N[C@@H](CCCNC(=N)N)C(=O)N[C@@H](CC1CCCCC1)C(N)=O (stereo partly drawn) [Example 69, trifluoroacetic acid salt]",
    "Unit Symbol": "nM",
    "Ki": 285
  },
  {
    "Molecule": "CC(C)C[C@H](NC(=O)[C@H](CCCNC(=N)N)NC(=O)[C@@H](NC(=O)C(Cc1ccc(N)cc1)C(=O)N(C(C)C)C(C)C)C1CCCCC1)C(=O)N1CCC[C@H]1C(N)=O (single isomer, unassigned; less polar) [Example 97]",
    "Unit Symbol": "nM",
    "Ki": 40
  },
  {
    "Molecule": "CN(C)C(=O)C(Cc1ccc(C(=N)N)cc1)C(=O)N[C@H](C(=O)N(CC(N)=O)Cc1ccncc1)C1CCCCC1 (single isomer, unassigned; more polar) [Example 104]",
    "Unit Symbol": "nM",
    "Ki": 6500
  },
  {
    "Molecule": "N=C(N)NCCC[C@H](NC(=O)[C@H](CO)NC(=O)C(Cc1ccc(C(=N)N)cc1)C(=O)Nc1ccccc1)C(N)=O (stereo partly drawn) [Example 54, trifluoroacetic acid salt]",
    "Unit Symbol": "nM",
    "Ki": 3010
  }
]

// for each molecule below, give its Ki
1. C=CCNC(=O)C(Cc1ccc(C(=N)N)cc1)C(=O)N[C@@H](CCC(=O)O)C(=O)N[C@@H](CCCNC(=N)N)C(=O)N[C@@H](CC1CCCCC1)C(N)=O (stereo partly drawn) [Example 89, trifluoroacetic acid salt]
2. N=C(N)NCCC[C@H](NC(=O)[C@@H](NC(=O)C(Cc1ccc(C(=N)N)cc1)C(=O)NCc1ccccc1)C1CCCCC1)C(=O)O (stereo partly drawn) [Example 82, trifluoroacetic acid salt]
3. C=CCNC(=O)C(Cc1ccc(C(=N)N)cc1)C(=O)N[C@@H](Cc1ccc(N)cc1)C(=O)N[C@@H](CCCNC(=N)N)C(N)=O (stereo partly drawn) [Example 17, trifluoroacetic acid salt]
4. CN(C)C(=O)C(Cc1ccc(C(=N)N)cc1)C(=O)N[C@@H](CCc1ccccc1)C(=O)N[C@@H](CCCNC(=N)N)C(N)=O (stereo partly drawn) [Example 40, trifluoroacetic acid salt]
5. CC(C)C[C@H](NC(=O)[C@H](Cc1ccc[n+](C)c1)NC(=O)[C@@H](NC(=O)C(Cc1ccc(C(=N)N)cc1)C(=O)N(C(C)C)C(C)C)C1CCCCC1)C(=O)N1CCC[C@H]1C(N)=O (single isomer, unassigned; more polar) [Example 94]
6. N=C(N)NCCC[C@H](NC(=O)[C@@H](NC(=O)C(Cc1ccc(C(=N)N)cc1)C(=O)NCc1ccccc1)C1CCCCC1)C(N)=O (single isomer, unassigned; more polar) [Example 8]

Result:
1. 6480
2. 39.3
3. 2290
4. 10.7
5. 1700
6. 35.1

// for each molecule below, give its Ki
1. N=C(N)NCCC[C@H](NC(=O)[C@@H](NC(=O)C(Cc1ccc(C(=N)N)cc1)C(=O)Nc1ccccc1)c1ccccc1)C(N)=O (stereo partly drawn) [Example 58, trifluoroacetic acid salt]
2. CCC(C)[C@@H](C(=O)N[C@@H](CCCNC(=N)N)C(N)=O)N(C)C(=O)C(Cc1ccc(C(=N)N)cc1)C(=O)Nc1ccccc1 (stereo partly drawn) [Example 21, trifluoroacetic acid salt]
3. CCCC[C@@H](NC(=O)C(Cc1ccc(C(=N)N)cc1)C(=O)N(C)C)C(=O)N[C@@H](CCCNC(=N)N)C(=O)O (stereo partly drawn) [Example 72, trifluoroacetic acid salt]
4. CCCC[C@H](NC(=O)C(Cc1ccc(C(=N)N)cc1)C(=O)Nc1ccccc1)C(=O)N[C@@H](CCCNC(=N)N)C(N)=O (stereo partly drawn) [Example 30]

Result:
[57.5, 8370, 4300, 153]
